Target: T1, Cynomolgus CD3 (Cynomolgus, UniProt Q95LI5 22-198; Q95LI7 23-181; Q95LI8 22-171)
T1 construct: whole, on cells; also called CD3 on Cynomolgus PBMCs; CD3 on HSC-F Cynomolgus T cell line
T1 sequence (Q95LI5 22-198, chain 1 of 3): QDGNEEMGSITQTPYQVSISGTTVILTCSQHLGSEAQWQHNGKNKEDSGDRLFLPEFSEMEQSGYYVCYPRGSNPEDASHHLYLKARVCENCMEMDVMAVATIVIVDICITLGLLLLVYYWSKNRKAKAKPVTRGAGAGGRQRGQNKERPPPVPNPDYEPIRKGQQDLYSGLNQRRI
T1 sequence (Q95LI7 23-181, chain 2 of 3): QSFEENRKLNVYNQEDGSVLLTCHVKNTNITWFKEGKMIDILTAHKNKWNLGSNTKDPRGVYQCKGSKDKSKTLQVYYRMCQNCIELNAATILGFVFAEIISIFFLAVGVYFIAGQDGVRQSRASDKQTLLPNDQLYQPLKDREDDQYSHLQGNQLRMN
T1 sequence (Q95LI8 22-171, chain 3 of 3): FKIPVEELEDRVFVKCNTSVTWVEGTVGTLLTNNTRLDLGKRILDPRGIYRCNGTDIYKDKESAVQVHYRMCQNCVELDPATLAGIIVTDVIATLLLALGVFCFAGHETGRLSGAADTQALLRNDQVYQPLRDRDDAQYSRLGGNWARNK
Experiment: apparent KD (KDapp), flow cytometry titration on fresh cynomolgus PBMCs
testReadout: Kd (nM)
Numbers only, in nM.

Guide cases for Kd, answers given:
[[record]]
binder = "F332-1E2 (antibody, mouse IgG2a, V domains shown, Sister clone 8C5 shares the same entries; also called F332-1E2-2; F332-1E2 (8C5)) VH: QVQLQQPGAELGKPGTSVKLSCKASGYTFTSYWIHWVKQRPGQGLEWVGNINPNSGSINYNEKFKNKATLTVDKSSSTAYMQLSTLTSEDFAVYYCTRDTSGQYYFDYWGQGTTLTVSS VL: DIVMSQSPSSLAVSAGERVTMSCKSSQSLLNSRTRKNYLAWYQQKPGQSPKLLIYWASTRESGVPDRFTGSGSGTDFTLTISSVQAEDLAVYYCIQSYHLRTFGGGTKLEIK"
testreadout = "Kd"
resultunit = "nM"
assayvalue = 0.28

[[record]]
binder = "F332-4D6 (antibody, mouse IgG2a, V domains shown, also called F332-4D6-2; F322-4D6) VH: QVQLQQSGAELGKPGTSVKLSCKASGYTFTSYWIHWVKQRPGQGLEWIGNINPNSGSTNYNEKFKRKATLTADKSSSTAYMQLSTLTSEDFAVYYCTRDTSGQYYFDYWGQGTTLTVSS VL: DIVMSQSPSSLAVSAGEKVTMSCKSSQSLLNSRTRKNYLAWYQQKPGQSPKVLIYWASTRESGVPDRFTGSGSGTDFTLTISSVQAEDLAVYYCKQSYHLRTFGGGTKLEIK"
testreadout = "Kd"
resultunit = "nM"
assayvalue = 0.15

[[record]]
binder = "F332-1C9 (antibody, mouse IgG2a, V domains shown, Sister clones 1A10, 5H8, 8B11 share the same entries; also called F332-1C9-2; F332-1C9 (1A10, 5H8, 8B11)) VH: QVQLQQPGAELGKPGTSVNLSCKASGYTFTSYWMHWVKQRPGQGLDWIGNINPNSGTTNYNEKFKSKATLTVDKSSSTAYMQLSTLTSEDSAVYYCTRDISGQYYFDYWGQGTSLTVSS VL: DIVMSQSPSSLAVSAGEKVTMSCKSSQSLLNSRTRKNYLAWYQQKPGQSPKLLIYWASTRESGVPDRFTGSGSGTDFTLIISSVQAEDLAVYYCKQSYSLRTFGGGTKLEIK"
testreadout = "Kd"
resultunit = "nM"
assayvalue = 0.25

[[record]]
binder = "F282-2D5 (antibody, V domains shown, also called F282-2D5-2) VH: QVQLQQPGTELVKPGASVKLSCKASGYTFTSYWMHWVKQRPGQGLEWIGNINPSNGGTNYNENFKTKATLTVDKSSSTAYMQLSSLTSEDSAVYYCARDRSGQYYFDYWGQGTTLTVSS VL: DIVMSQSPSSLAVSAGEKVTMSCKSSQSLLNSRTRKNYLAWYQQKPGQSPKLLIYWASTRESGVPDRFTGSGSGTDFTLTISSVQAEDLAVYYCIQSYHLRTFGGGTILEIK"
testreadout = "Kd"
resultunit = "nM"
assayvalue = 0.11


## Input Would you mind telling me what Kd value was observed for F332-3E9 (antibody, mouse IgG2a, V domains shown, also called F332-3E9-2; F332-3E9 (12G4)) VH: QVQLQQPGAELGKPGTSVKLSCKASGYTFTSYWIHWLKQRPGQGLEWIGNINPNGGSINCNEKFTTKATLTIDKSSSTAYMQLSTLTSEDFAVYYCTRDTSGQYYFDYWGQGTTLTVSS VL: DIMMSQSPSSLAVSAGEKVTMSCKSSQSLLNSRTRKNYLAWYQQKPGQSPKLLIYWASTRESGVPDRFTGSGSGTDFTLTISSVQAEDLAVYYCTQSYHLRTFGGGTKLEIK ?
## Output 0.21
